System: Fibroblast
test: Multiplex assay against human fibroblast
Assay type: toxicity, cell-based
runConditions: 12 h, 10 µM, compound concentration 10 uM, replicate 2
observationType: Population Mitotic Cells (%)

CCc1ccc(OCc2ccccc2C(=O)Nc2ccc3nc(C)cc(N)c3c2)cc1.Cl; 23%
COc1ccc(-c2ccc3ncc4c(c3c2)n(-c2ccc(N3CCNCC3)c(C(F)(F)F)c2)c(=O)n4C)cn1.O=C(O)/C=C\C(=O)O; 0%
COc1cc(Nc2nccc(-c3cnn4nc(OC)ccc34)n2)cc(C(F)(F)F)c1; 66%
Cc1c[nH]c2nccc(Oc3c(F)cc(Nc4cc(Cl)nc(N)n4)cc3F)c12; 60%
CC(C)OC(=O)N1CCC(Oc2ncnc3c2cnn3-c2ccc(S(C)(=O)=O)cc2F)CC1; 81%
COc1ccccc1CN[C@H]1C2CCN(CC2)[C@H]1C(c1ccccc1)c1ccccc1; 50%
CC(C)(C)NC[C@H](O)COc1nsnc1N1CCOCC1; 66%

====

Known Population Normal (%) of a selection of compounds
Test system: U2OS
test: Multiplex assay against U2OS
Assay type: toxicity, cell-based
runConditions: human, 48 h, 10 µM, compound concentration 10 uM, replicate 1
observationType: Population Normal (%)

Cc1ccc(C)c(Oc2ccncc2C(=O)N2CCN(C3CC3)c3ccccc32)c1; 90
Cc1ccccc1C(c1ccccc1C)N1C2CCC1CC(O)(c1ccccc1)C2 (stereo not given); 95
COc1ccccc1CN[C@H]1C2CCN(CC2)[C@H]1C(c1ccccc1)c1ccccc1 [CP-96345]; 95
Cc1cccc(CN2CCN(C(c3ccccc3)c3ccc(Cl)cc3)CC2)c1.Cl.Cl (stereo not given); 95
COc1cc(Nc2nccc(-c3cnn4nc(OC)ccc34)n2)cc(C(F)(F)F)c1; 79
O=c1cc(N2CCOCC2)oc2c(-c3cccc4c3sc3ccccc34)cccc12; 86
CC(C)NC(=O)N1CC[C@H](NC2=Nc3cc(F)ccc3N(CC(F)F)c3ccc(Cl)cc32)C1; 93
CC1=C(C(=O)Nc2cc3cn[nH]c3cc2F)C(c2ccc(C(F)(F)F)cc2)CC(=O)N1 (stereo not given); 97
CC(C)(C)NC[C@H](O)COc1nsnc1N1CCOCC1 [TIMOLOL]; 97
Cc1c[nH]c2nccc(Oc3c(F)cc(Nc4cc(Cl)nc(N)n4)cc3F)c12 [BAY-549]; 94

====

Tested on: U2OS
test: Multiplex assay against U2OS
Type: toxicity, cell-based
runConditions: human, 24 h, 1 µM, compound concentration 1 uM, replicate 1
Listing of recorded Population Normal (%) by entry.
observationType: Population Normal (%)

COc1cc(Nc2nccc(-c3cnn4nc(OC)ccc34)n2)cc(C(F)(F)F)c1; 93%
CCCSc1nc(N[C@@H]2C[C@H]2c2ccc(F)c(F)c2)c2nnn([C@@H]3C[C@H](OCCO)[C@@H](O)[C@H]3O)c2n1; 92%
CCc1ccc(OCc2ccccc2C(=O)Nc2ccc3nc(C)cc(N)c3c2)cc1.Cl; 88%
Cc1cccc(CN2CCN(C(c3ccccc3)c3ccc(Cl)cc3)CC2)c1.Cl.Cl (centres undefined); 94%

====

Tested on: U2OS
test: Multiplex assay against U2OS
Format: toxicity, cell-based
runConditions: human, 24 h, 10 µM, compound concentration 10 uM, replicate 1
Mark Not met for Population Healthy Nuclei (%) values under 60%, and Met for everything at or above.

COc1cc2ncn(-c3cc(OCc4ccccc4C(F)(F)F)c(C(N)=O)s3)c2cc1OC [GW843682X]; Met
O=C(c1cc2c(cc1F)OC(c1ccc(F)cc1)(c1ccc(Cl)cc1Cl)O2)N1CCOCC1 (stereo not given); Not met
CCC1=C[C@@H]2C[N@](C1)Cc1c([nH]c3ccccc13)[C@@](C(=O)OC)(c1cc3c(cc1OC)N(C)[C@H]1[C@@](O)(C(=O)OC)[C@H](OC(C)=O)[C@]4(CC)C=CCN5CC[C@]31[C@@H]54)C2.O=C(O)C(O)C(O)C(=O)O.O=C(O)C(O)C(O)C(=O)O [VINORELBINE TARTRATE]; Not met
COc1ccc(-c2ccc3ncc4c(c3c2)n(-c2ccc(N3CCNCC3)c(C(F)(F)F)c2)c(=O)n4C)cn1.O=C(O)/C=C\C(=O)O [BGT-226]; Not met
CC(C)(C)NC[C@H](O)COc1nsnc1N1CCOCC1 [TIMOLOL]; Met
Cc1ccc(C)c(Oc2ccncc2C(=O)N2CCN(C3CC3)c3ccccc32)c1; Not met
Cc1c[nH]c2nccc(Oc3c(F)cc(Nc4cc(Cl)nc(N)n4)cc3F)c12 [BAY-549]; Not met
Cc1ccc2c(c1)c1c(n2CCc2ccc(C)nc2)CCN(C)C1 [LATREPIRDINE]; Not met

====

Tested on: U2OS
test: Multiplex assay against U2OS
Assay type: toxicity, cell-based
runConditions: human, 48 h, 1 µM, compound concentration 1 uM, replicate 2
Catalogue of compounds with associated Population Pyknosed Nuclei (%)
observationType: Population Pyknosed Nuclei (%)

O=c1cc(N2CCOCC2)oc2c(-c3cccc4c3sc3ccccc34)cccc12; 9%
COc1cc2ncn(-c3cc(OCc4ccccc4C(F)(F)F)c(C(N)=O)s3)c2cc1OC [GW843682X]; 10%
CN1CCN(Cc2ccc(Nc3ncc(Cl)c(Nc4ccccc4S(=O)(=O)N(C)C)n3)cc2)CC1; 4%

====

Test system: HEK-293T
test: Multiplex assay against HEK293T
Assay type: toxicity, cell-based
runConditions: human, 48 h, 1 µM, compound concentration 1 uM, replicate 1
observationType: Population Membrane Permeable-Phenotype (%)

CCc1nn(CCCN2CCN(c3cccc(Cl)c3)CC2)c(=O)n1CCOc1ccccc1.Cl [NEFAZODONE HYDROCHLORIDE]; 2%
Cc1cccc(CN2CCN(C(c3ccccc3)c3ccc(Cl)cc3)CC2)c1.Cl.Cl (stereo not drawn); 2%
Cl.O=C(O)c1cc(-c2ccc(C3CCNCC3)cc2)c2ccc(-c3ccc(C(F)(F)F)cc3)cc2c1; 2%

====

Test system: HEK-293T
test: Multiplex assay against HEK293T
Assay type: toxicity, cell-based
runConditions: human, 24 h, 1 µM, compound concentration 1 uM, replicate 1
observationType: Population Apoptotic (%)

CCc1nn(CCCN2CCN(c3cccc(Cl)c3)CC2)c(=O)n1CCOc1ccccc1.Cl [NEFAZODONE HYDROCHLORIDE]; 50%
CC(C)(C)NC[C@H](O)COc1nsnc1N1CCOCC1 [TIMOLOL]; 49%
CC(C)c1noc(N2CCC(COc3ccc(-c4ccc(S(C)(=O)=O)cc4)nc3)CC2)n1 [GSK-1292263]; 39%
CC(C)OC(=O)N1CCC(Oc2ncnc3c2cnn3-c2ccc(S(C)(=O)=O)cc2F)CC1; 51%

====

Catalogue of Population Normal (%) readings, one per entry.
Tested on: HEK-293T
test: Multiplex assay against HEK293T
Assay type: toxicity, cell-based
runConditions: human, 24 h, 1 µM, compound concentration 1 uM, replicate 2
observationType: Population Normal (%)

Cc1nc(N2CC[C@H](O)C2)ncc1-c1cc(C(F)(F)F)cc2[nH]ncc12; 97
O=c1[nH]c2ccccc2n1C1CCN(Cc2ccc(-c3[nH]c4cc5ncnc5cc4nc3-c3ccccc3)cc2)CC1; 95
CNC(=O)Nc1ccc(-c2nc(N3CC4CCC(C3)O4)c3cnn(C4CCC5(CC4)OCCO5)c3n2)cc1; 89

====

Test system: HEK-293T
test: Multiplex assay against HEK293T
Format: toxicity, cell-based
runConditions: human, 24 h, 10 µM, compound concentration 10 uM, replicate 2
Measured Population Pyknosed Nuclei (%) of individual entries
observationType: Population Pyknosed Nuclei (%)

CCCSc1nc(N[C@@H]2C[C@H]2c2ccc(F)c(F)c2)c2nnn([C@@H]3C[C@H](OCCO)[C@@H](O)[C@H]3O)c2n1 [TICAGRELOR]; 69
CN1CCN(Cc2ccc(Nc3ncc(Cl)c(Nc4ccccc4S(=O)(=O)N(C)C)n3)cc2)CC1 [DUBERMATINIB]; 38
Cc1c[nH]c2nccc(Oc3c(F)cc(Nc4cc(Cl)nc(N)n4)cc3F)c12 [BAY-549]; 44
Cc1nc(N2CC[C@H](O)C2)ncc1-c1cc(C(F)(F)F)cc2[nH]ncc12; 2
COc1cc2ncn(-c3cc(OCc4ccccc4C(F)(F)F)c(C(N)=O)s3)c2cc1OC [GW843682X]; 32
O=c1cc(N2CCOCC2)oc2c(-c3cccc4c3sc3ccccc34)cccc12; 69
CC(C)(C)NC[C@H](O)COc1nsnc1N1CCOCC1 [TIMOLOL]; 24
C=CC(=O)Nc1cccc(Oc2nc(Nc3ccc(N4CCN(C)CC4)cc3OC)ncc2Cl)c1; 3
C=CC(=O)Nc1cccc(Sc2nc(Nc3ccc(N4CCN(C)CC4)cc3)ncc2Cl)c1; 3
Cc1ccc2c(c1)c1c(n2CCc2ccc(C)nc2)CCN(C)C1 [LATREPIRDINE]; 77

====

Tested on: U2OS
test: Multiplex assay against U2OS
Format: toxicity, cell-based
runConditions: human, 12 h, 1 µM, compound concentration 1 uM, replicate 1
observationType: Population Apoptotic (%)

CCCSc1nc(N[C@@H]2C[C@H]2c2ccc(F)c(F)c2)c2nnn([C@@H]3C[C@H](OCCO)[C@@H](O)[C@H]3O)c2n1; 23%
COc1cc(Nc2nccc(-c3cnn4nc(OC)ccc34)n2)cc(C(F)(F)F)c1; 27%
CCOC(=O)Nc1cc(-c2ccc(C)c(NS(C)(=O)=O)c2)nn2c(C)nnc12; 83%
